- System: K4 kissing-loop RNA reporter
- protocol description: apparent KD of K4 kissing-loop reporter; higher = weaker reporter binding
- particulars: Eterna round: R107; input ligand: arginine 13.2 mM
Parameter apparent KD of K4 kissing-loop reporter: see the listing below.
Could you give me the number in nM? Just the number is fine.

Kindly note the recorded apparent KD of K4 kissing-loop reporter for AAUAUAGUGAUGUUAUAUAAGAAGGAGUUACGAGGACCGGUACGGCCGCCACUCGAAACGAGUGAAGAAGGAGGAAGGAGGAGGA [SSTRyptA.A] , which is 300

----------
- Tested on: K4 kissing-loop RNA reporter;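 further: bound reporter read as fluorescence of individual clusters on recovered sequencing chips by microscopy, with normalized cluster intensities fitted with a binding model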
- protocol description: apparent KD of K4 kissing-loop reporter; higher = weaker reporter binding
- particulars: Eterna round: R107; input ligand: tryptophan 2.4 mM
Parameter apparent KD of K4 kissing-loop reporter: see the listing below.

Guide cases for apparent KD of K4 kissing-loop reporter, answers given:
AAGCAGUCACUCGAAACCAUCGAAGAUGGGCGAGGACCGGUACGGCCGCCACUCGGAGUGAUGUUCCGAAGACUGCAAAAUAAAA | 354 nM
UCUCAGGAGUGAUGUUCCGUAGGUGGAAGGAAGGAUAUCUAAUGGCAGAGAAGGUCCAUCCUUGCUCGUAUCAGUGCCGGGAAGC [theeternabot_exclusion_KL_FMN_A_13] | 168 nM
CAGGUGCUGAUGCGGUGGCCGGUGGUCGUGCGAGGACCGGUACGGCCGCCACUCGCAUGAGUGAUGUUCAUGUGUCGUCGUCGUC [whbob_EX_Tryp_A_t2] | 223 nM

Hey, K4 kissing-loop RNA reporter data for UGUACCGAGUCAGGAUAUGAACGACUGACAAAAGUCGGUCGAAUAUCCAGUGAUGUUGGAAAUAAAUCAGAAGGGACUUGGUACU [FmnBS 15 #SwitchBubble #StaticStem] : apparent KD of K4 kissing-loop reporter came out at 726 nM

Hey, K4 kissing-loop RNA reporter data for "GGUAGCAUGGCGGCCGCCACUUUUACUGGAUCGGAAACGAUCCAGUAUUGUGUAGUGAUGUUACAAAGGACCGGGCCAUGCUACC" : apparent KD of K4 kissing-loop reporter came out at 167 nM

Hey, K4 kissing-loop RNA reporter data for UGAUACCAGACGGCCGCCACUCCCGCAGGUCAAAGACCUGCGAAGAAGGUUCUUCAGUGAUGUUGGAGGACCGGGUCUGGUAUCU [FiskerMod 22 - Jieux - Exclusion - Tryptophan B] : apparent KD of K4 kissing-loop reporter came out at 369 nM
